Where do the numbers come from? From patent US11840533B2.

target_of_assay: BRD3(1, 2) (Homo sapiens (Human))
Sequence (Q15059 24-416): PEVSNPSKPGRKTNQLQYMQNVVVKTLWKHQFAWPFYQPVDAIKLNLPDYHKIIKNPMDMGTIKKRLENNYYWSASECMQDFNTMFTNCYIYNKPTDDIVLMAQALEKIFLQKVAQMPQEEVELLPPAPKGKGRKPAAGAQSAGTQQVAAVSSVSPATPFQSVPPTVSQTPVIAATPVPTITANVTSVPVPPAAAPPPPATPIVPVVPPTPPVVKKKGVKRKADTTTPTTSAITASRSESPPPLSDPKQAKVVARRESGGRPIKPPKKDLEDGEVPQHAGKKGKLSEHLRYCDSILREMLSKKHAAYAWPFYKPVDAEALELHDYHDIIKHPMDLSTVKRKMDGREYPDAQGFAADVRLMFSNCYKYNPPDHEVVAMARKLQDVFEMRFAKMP
assay_protocol: BROMOscan
result_type: Kd (nM)
Supply the numeric figure in nM, leaving out any unit text.

// Kd lookup, key: CCS(=O)(=O)Nc1cc(-c2cn(C)c3c(=O)[nH]ccc23)cc2c1ccn2C(C)(c1ccccn1)c1ccccn1 [Compound 70] 0.27

====

target_of_assay: UniProt Q58F21
assay_protocol: BROMOscan
result_type: Kd (nM)
Supply the numeric figure in nM, leaving out any unit text.

// Kd lookup, key: CCS(=O)(=O)Nc1cc(-c2cn(C)c3c(=O)[nH]ccc23)cc2c1ccn2C(C)(c1ccccn1)c1ccccn1 [Compound 70] 0.14
